Target: UniProt O14842
Sequence (O14842 whole entry): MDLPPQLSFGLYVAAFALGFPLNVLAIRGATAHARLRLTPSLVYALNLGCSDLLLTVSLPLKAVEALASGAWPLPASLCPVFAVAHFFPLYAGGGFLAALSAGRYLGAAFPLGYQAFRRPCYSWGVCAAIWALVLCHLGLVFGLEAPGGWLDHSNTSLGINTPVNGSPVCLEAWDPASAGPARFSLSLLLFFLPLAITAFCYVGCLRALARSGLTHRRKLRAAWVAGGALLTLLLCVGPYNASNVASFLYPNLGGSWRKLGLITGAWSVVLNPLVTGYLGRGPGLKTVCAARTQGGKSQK
Test: Ca2+ mobilization (FLIPR) in a stable GPR40-expressing cell; GPR40 agonist activity
Details: compound concentration corresponding to 50% PosiC, 100% = intracellular calcium level induced by 80 μM palmitic acid
pEC50: −log10 of the molar value.
pEC50: recorded values

Request: Given the entry COC(CC(=O)O)c1ccc(OCC2CCCC3(CCCCC3)C2)cc1 (racemic) [Example 80] , report its measured pEC50.
Response: 5.00 to 6.00

Request: Given the entry CCCOC(CC(=O)O)c1ccc(OCC2CCCC3(CCCCC3)C2)cc1 (racemic) [Example 83] , report its measured pEC50.
Response: 6.00 to 7.00

Request: Given the entry CC#C[C@@H](CC(=O)O)c1ccc(OCC2CCCC3(C=CCCC3(C)C)C2)cc1 (mixture of isomers) [Example 19] , report its measured pEC50.
Response: 7.00 to 8.00

The measurements presented in this section are drawn from patent US8299296B2.
